Collected efflux ratio at 90 min, 10 μM values appear next to each entry.
assay: in vitro; details: human, Caco-2, pH 7.4
Parameter measured: efflux ratio at 90 min, 10 μM

1. Cc1cccnc1[C@@H]1CCC[C@H](c2nc3cccc(N4C5CCC4CNC5)c3[nH]2)N1C :: > 30
2. CN1CCC(n2ccnc2[C@H]2CCC[C@@H](c3ncccc3Cl)N2)CC1 :: 0.1 to 10
3. CN1CCN(c2cccc3nc([C@H]4CCC[C@@H](c5nccc6ccccc56)N4C)[nH]c23)CC1 :: 0.1 to 10
4. Cc1cccnc1[C@@H]1CCC[C@H](c2nc3cccc(OC4CCN(C)CC4)c3[nH]2)N1C :: 0.1 to 10
5. CN(C)CCCn1ccnc1[C@H]1CCC[C@@H](c2ncccc2Cl)N1C :: 0.1 to 10
6. Cc1cccnc1[C@@H]1CCC[C@H](c2nc3ccccc3[nH]2)N1CCCCN :: 10 to 30
7. CN1C2CCC1CN(c1cccc3nc([C@H]4CCC[C@@H](c5ncccc5Cl)N4)[nH]c13)C2 :: 0.1 to 10
8. Cc1cccnc1[C@@H]1CCC[C@H](c2nccn2CCc2ccccn2)N1 :: 0.1 to 10
9. Cc1cccnc1[C@@H]1CCC[C@H](c2ncc[nH]2)N1Cc1ccccc1-n1cccn1 :: 0.1 to 10

---

assay: Rat brain uptake assay: pharmacokinetics and brain penetration after IV-PO administration; type: in vivo, male SD rats; details: plasma, read-out: Fu (p) % (fraction of drug unbound to plasma proteins)
List of fraction unbound values.
Parameter measured: fraction unbound

1. CN1CCN(c2cccc3nc([C@H]4CCC[C@@H](c5ncccc5Cl)N4)[nH]c23)CC1 (racemic) :: 0.251
2. Cc1cccnc1[C@@H]1CCC[C@H](c2nc3cccc(N4CCN(C)CC4)c3[nH]2)N1C (racemic) :: 0.101

---

test: in vitro; settings: human, Caco-2, pH 7.4
Parameter measured: Papp B→A at 90 min, 10 μM

1. Cc1cccnc1[C@@H]1C[C@@H](O)C[C@H](c2nc3cccc(N4CCN(C)CC4)c3[nH]2)N1C [I-101] :: 10 to 30 ×10⁻⁶ cm/s
2. [2H]C([2H])([2H])N1[C@@H](c2nc3cccc(N4CCN(C)CC4)c3[nH]2)CCC[C@H]1c1ncccc1C [I-112] :: 10 to 30 ×10⁻⁶ cm/s
3. Cc1cccnc1[C@@H]1CCC[C@H](c2ncc[nH]2)N1Cc1ccccc1-n1cccn1 [I-166] :: 10 to 30 ×10⁻⁶ cm/s
4. Cc1cccnc1[C@@H]1CCC[C@H](c2nc3cccc(N4CCN(C)C(C)(C)C4)c3[nH]2)N1C [I-55] :: 10 to 30 ×10⁻⁶ cm/s
5. CN1CCN(c2cccc3nc([C@H]4CCC[C@@H](c5ncn6ccccc56)N4C)[nH]c23)CC1 [I-93] :: 10 to 30 ×10⁻⁶ cm/s
6. COCCc1ccc(OCC(O)CNC(C)C)cc1 (centres unmarked) [Metoprolol, reference compound] :: > 10 ×10⁻⁶ cm/s
7. Cc1cccnc1[C@@H]1CCC[C@H](c2nc3cccc(N4CCN(C5CC5)CC4)c3[nH]2)N1 [I-125] :: 10 to 30 ×10⁻⁶ cm/s
8. Cc1cccnc1[C@@H]1CCC[C@H](c2nc3ccccc3[nH]2)N1Cc1ccccc1-n1cccn1 [I-21] :: 10 to 30 ×10⁻⁶ cm/s
9. Cc1cccnc1[C@@H]1CCC[C@H](c2nccn2C2CCNCC2)N1C [I-179] :: 10 to 30 ×10⁻⁶ cm/s
10. Cc1cccnc1[C@@H]1CCC[C@H](c2nc3cccc(C4CCN(C)CC4)c3[nH]2)N1C [I-34] :: 10 to 30 ×10⁻⁶ cm/s
11. Cc1cccnc1[C@@H]1CCC[C@H](c2nccn2Cc2ccccc2-n2cccn2)N1 [I-167] :: > 30 ×10⁻⁶ cm/s
12. Cc1cccnc1[C@@H]1CCC[C@H](c2nc3cccc(N4CCN(C)CC4)c3n2C)N1C [I-35] :: 0.1 to 10 ×10⁻⁶ cm/s
13. Cc1cccnc1[C@@H]1CCC[C@H](c2nc3c(N4CCN(C)CC4)cccc3n2C)N1C [I-36] :: 10 to 30 ×10⁻⁶ cm/s
14. CN1CCC(c2cccc3nc([C@H]4CCC[C@@H](c5ncccc5Cl)N4)[nH]c23)CC1 [I-152] :: 10 to 30 ×10⁻⁶ cm/s
15. CN1CCN(c2cccc3nc([C@H]4CCC[C@@H](c5ncccc5C(F)(F)F)N4C)[nH]c23)CC1 (relative stereo) [I-58] :: 10 to 30 ×10⁻⁶ cm/s
16. Clc1cccnc1[C@@H]1CCC[C@H](c2nc3cccc(N4CCN(C5CC5)CC4)c3[nH]2)N1 [I-143] :: 10 to 30 ×10⁻⁶ cm/s
17. Cc1cccnc1[C@@H]1CCC[C@H](c2nc3ccccc3n2CCC#N)N1 [I-159] :: 10 to 30 ×10⁻⁶ cm/s
